Origin of values: paper PMC3218832

# Experimental target: p52p52 homodimer (Homo sapiens, UniProt Q00653 4-332)
# Sequence: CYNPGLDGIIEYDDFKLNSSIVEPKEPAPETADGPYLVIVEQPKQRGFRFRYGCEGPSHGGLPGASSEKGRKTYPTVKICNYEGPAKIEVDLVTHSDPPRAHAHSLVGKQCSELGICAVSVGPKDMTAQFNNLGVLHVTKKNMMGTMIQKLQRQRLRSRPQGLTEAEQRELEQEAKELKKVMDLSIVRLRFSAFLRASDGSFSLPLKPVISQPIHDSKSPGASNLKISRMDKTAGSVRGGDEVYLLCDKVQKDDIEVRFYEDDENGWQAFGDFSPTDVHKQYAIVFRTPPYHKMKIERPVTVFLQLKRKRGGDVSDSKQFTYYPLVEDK
# Procedure details: protein binding microarray; high values mean tight binding
# Conditions: dsDNA, one strand shown
The label depends only on binding signal: 1 if it is at least 0.9 z-score, 0 if it is smaller.

>  <Entry sequence>
AAAAGAATCCC

>  <Assigned category>
0

$$$$
>  <Entry sequence>
AAATGAGTCCT

>  <Assigned category>
0

$$$$
>  <Entry sequence>
CAAAAAGTCCC

>  <Assigned category>
1

$$$$
>  <Entry sequence>
AAGAATCCCCC

>  <Assigned category>
1

$$$$
>  <Entry sequence>
CGGGATGCCCC

>  <Assigned category>
1

$$$$
>  <Entry sequence>
GGGGTTGTCCC

>  <Assigned category>
1

$$$$
>  <Entry sequence>
AAGGTACTCCC

>  <Assigned category>
0

$$$$
>  <Entry sequence>
AGATTACCCCC

>  <Assigned category>
1

$$$$
